tested on: L1210 leukemia ip in BDF1 mice, survival T/C; experiment: NCI In Vivo Anticancer Drug Screen. Data for tumor model L1210 Leukemia (intraperitoneal) in B6D2F1 (BDF1) mice; conditions: endpoint: mean survival time; dose: 100.0 mg/kg/injection; schedule: Q01DX009 (ip); vehicle: Klucel (hydroxypropylcellulose) (HPC); higher = longer survival
Toxic doses and inconclusive results are not listed.
Listed here are molecules together with their documented T/C.

{"molecule": "CC(Cc1ccccc1)NCCc1c2ccccc2nc2ccccc12 (stereo not drawn)", "T/C": "104 % of control"}
{"molecule": "N#CC(C#N)=Cc1cccc(OCc2ccccc2)c1", "T/C": "100 % of control"}
{"molecule": "Cc1cc(OC(=O)Nc2cccc(C(F)(F)F)c2)c(C)cc1Cl", "T/C": "106 % of control"}
{"molecule": "CC(=O)c1cc2ccccc2o1", "T/C": "90 % of control"}
{"molecule": "OCC12COC(c3ccccc3)N1C(c1ccccc1)OC2 (stereo not drawn)", "T/C": "102 % of control"}

Query: Returns the measured T/C for the input molecule. Input: Cc1ccc(S(=O)(=O)OCCN(CCOS(=O)(=O)c2ccc(C)cc2)S(=O)(=O)c2ccc(C)cc2)cc1
Reply: 94 % of control

Query: Returns the measured T/C for the input molecule. Input: COc1cc(C(=O)CCC(=O)O)cc(OC)c1OC
Reply: 96 % of control

Query: Returns the measured T/C for the input molecule. Input: O=C/C(=C/c1ccccc1)c1ccccc1
Reply: 98 % of control

Query: Returns the measured T/C for the input molecule. Input: CCCCCCC(=O)CCCC(C)CCCC(C)C (stereo not drawn)
Reply: 91 % of control

Query: Returns the measured T/C for the input molecule. Input: CN(C)N=Nc1ccc([N+](=O)[O-])cc1C(=O)O
Reply: 100 % of control

---

Tested on: L1210 leukemia ip in BDF1 mice, survival T/C
Experiment: NCI In Vivo Anticancer Drug Screen. Data for tumor model L1210 Leukemia (intraperitoneal) in B6D2F1 (BDF1) mice
Details: endpoint: mean survival time; dose: 400.0 mg/kg/injection; schedule: Q01DX009 (ip); vehicle: Klucel (hydroxypropylcellulose) (HPC); higher = longer survival
Protocol: The antitumor activity of compounds was measured in mice bearing transplantable tumors. Survival or tumor size were measured and the results are expressed as the measurement made in the treated group (T) divided by the measurement made in the vehicle treated control group (C). The tumor model used in this assay is L1210 Leukemia (intraperitoneal) in B6D2F1 (BDF1) mice
Toxic doses and inconclusive results are not listed.
metric_name: T/C

Below, each entry is followed by its recorded T/C result.
{"compound": "Cc1ccc(C2NC(=O)c3ccccc3N2)s1 (centres undefined)", "T/C": "87 % of control"}
{"compound": "CC1CCC(C(C)C)/C(=N/NC(=O)c2ccccc2)C1 (centres undefined)", "T/C": "86 % of control"}
{"compound": "O=C(N/N=C/c1cccnc1)c1ccc(O)cc1", "T/C": "94 % of control"}

In the following, a different compound is considered.
Query: Returns the measured T/C for the input compound. Input: BrC1C2CC3C1C3C2c1ccccc1 (centres undefined)
Reply: 107 % of control

---

tested on: L1210 leukemia ip in BDF1 mice, survival T/C; experiment: NCI In Vivo Anticancer Drug Screen. Data for tumor model L1210 Leukemia (intraperitoneal) in B6D2F1 (BDF1) mice; conditions: endpoint: mean survival time; dose: 50.0 mg/kg/injection; schedule: Q04DX003 (ip); vehicle: saline with Tween-80; higher = longer survival
Inconclusive results and toxic doses are left out.
metric_name: T/C

Below, each entry is followed by its recorded T/C result.
{"molecule": "CCNCCCCNCC", "target": "L1210 leukemia ip in BDF1 mice, survival T/C", "T/C": "91 % of control"}
{"molecule": "COc1cccc(/C(C)=N\\NC(=O)c2ccccc2)c1", "target": "L1210 leukemia ip in BDF1 mice, survival T/C", "T/C": "90 % of control"}
{"molecule": "O=C(Nc1ccc(Cl)cc1[N+](=O)[O-])Oc1ccc(Cl)cc1Cc1ccccc1", "target": "L1210 leukemia ip in BDF1 mice, survival T/C", "T/C": "116 % of control"}
{"molecule": "CCCCn1c2ccccc2c2ccccc21", "target": "L1210 leukemia ip in BDF1 mice, survival T/C", "T/C": "96 % of control"}

In the following, a different compound is considered.
Query: Lookup: T/C / L1210 leukemia ip in BDF1 mice, survival T/C / Cc1c(Cl)cccc1NC(=O)Oc1ccc(-c2ccccc2)cc1
Reply: 97 % of control
